- tested-on: Solute carrier family 15 member 1 (Homo sapiens)
- Sequence (P46059 whole entry): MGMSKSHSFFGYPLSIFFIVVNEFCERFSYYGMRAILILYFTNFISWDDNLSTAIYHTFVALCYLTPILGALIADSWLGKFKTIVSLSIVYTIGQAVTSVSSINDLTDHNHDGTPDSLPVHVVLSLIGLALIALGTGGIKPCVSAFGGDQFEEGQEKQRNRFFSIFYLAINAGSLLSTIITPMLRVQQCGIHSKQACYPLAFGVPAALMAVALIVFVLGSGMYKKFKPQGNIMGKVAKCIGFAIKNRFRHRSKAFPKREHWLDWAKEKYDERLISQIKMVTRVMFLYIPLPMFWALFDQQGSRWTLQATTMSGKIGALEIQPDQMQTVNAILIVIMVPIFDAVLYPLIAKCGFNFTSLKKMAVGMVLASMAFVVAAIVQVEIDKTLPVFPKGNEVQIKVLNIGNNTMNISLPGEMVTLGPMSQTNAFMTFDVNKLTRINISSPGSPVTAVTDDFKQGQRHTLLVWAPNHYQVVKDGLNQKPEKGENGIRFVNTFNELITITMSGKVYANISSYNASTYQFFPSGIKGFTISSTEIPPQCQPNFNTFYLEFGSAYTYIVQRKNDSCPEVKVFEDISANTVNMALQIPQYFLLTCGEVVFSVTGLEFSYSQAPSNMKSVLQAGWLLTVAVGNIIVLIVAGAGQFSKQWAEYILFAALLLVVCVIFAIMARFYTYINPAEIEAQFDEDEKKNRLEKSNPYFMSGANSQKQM
- assay-info: TP_TRANSPORTER: inhibition of Gly-Sar uptake in Caco-2 cells
Non-standard residues stand in square brackets, D forms with d. Residues, ends and D or L forms follow the SMILES beside them. *: point of attachment. Cbz = O=C(OCc1ccccc1)*
The reader will find reported pKi values listed item by item below.
Reminder that pKi is minus the log10 of a molar concentration.

Which value of pKi has been reported for N[C@@H](CCCCNC(=O)OCc1ccc([N+](=O)[O-])cc1)C(=O)N1CCC[C@H]1C(=O)O in the records?
4.72

Which value of pKi has been reported for NCCCC[C@H](NC(=O)OCc1ccccc1)C(=O)N1CCC[C@H]1C(=O)O (Cbz-Lys-Pro-OH) in the records?
4.48

Which value of pKi has been reported for NCCCC[C@H](N)C(=O)N1CCC[C@@H]1C(=O)O (H-Lys-[dP]-OH) in the records?
3.46
